Form field: IC50 (one value per entry).
Tested system: Cdk9/cyclinT1 (Homo sapiens, UniProt P50750)
Sequence (P50750 whole entry): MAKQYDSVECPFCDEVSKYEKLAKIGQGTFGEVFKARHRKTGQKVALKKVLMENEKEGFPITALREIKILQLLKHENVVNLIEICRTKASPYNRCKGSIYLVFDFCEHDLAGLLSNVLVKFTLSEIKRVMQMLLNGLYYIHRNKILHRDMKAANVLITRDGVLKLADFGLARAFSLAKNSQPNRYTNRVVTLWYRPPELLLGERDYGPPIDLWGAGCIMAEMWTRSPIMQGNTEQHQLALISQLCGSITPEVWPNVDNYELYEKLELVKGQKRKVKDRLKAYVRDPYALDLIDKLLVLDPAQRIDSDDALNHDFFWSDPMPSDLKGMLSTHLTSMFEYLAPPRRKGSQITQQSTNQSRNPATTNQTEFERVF
Sequence (O60563 whole entry partner): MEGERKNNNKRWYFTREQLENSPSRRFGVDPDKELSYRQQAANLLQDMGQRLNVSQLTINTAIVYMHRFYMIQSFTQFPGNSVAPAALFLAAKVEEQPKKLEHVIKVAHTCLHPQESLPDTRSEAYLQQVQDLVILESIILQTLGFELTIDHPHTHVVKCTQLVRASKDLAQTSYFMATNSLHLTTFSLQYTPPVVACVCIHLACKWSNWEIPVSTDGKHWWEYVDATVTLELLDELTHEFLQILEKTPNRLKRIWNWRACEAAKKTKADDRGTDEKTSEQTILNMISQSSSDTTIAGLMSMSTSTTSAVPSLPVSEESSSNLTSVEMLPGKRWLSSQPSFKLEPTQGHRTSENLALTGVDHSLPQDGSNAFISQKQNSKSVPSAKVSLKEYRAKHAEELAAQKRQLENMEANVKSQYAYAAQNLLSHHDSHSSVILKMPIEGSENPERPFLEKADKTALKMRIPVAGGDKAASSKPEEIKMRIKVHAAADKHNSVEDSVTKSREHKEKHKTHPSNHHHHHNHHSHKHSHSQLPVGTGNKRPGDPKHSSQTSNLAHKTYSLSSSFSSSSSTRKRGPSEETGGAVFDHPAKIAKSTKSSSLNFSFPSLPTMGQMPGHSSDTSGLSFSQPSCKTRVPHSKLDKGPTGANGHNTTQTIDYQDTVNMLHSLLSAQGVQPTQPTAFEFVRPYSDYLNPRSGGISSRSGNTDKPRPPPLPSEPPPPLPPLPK
Test protocol: Cdk9/cyclinT1 kinase assay (IMAP or Alpha Screen protocol)
Quick note: give the figure in nM, leave out the unit.

{"Compound": "O=C(Nc1cc(-c2cncc(NCC3CCOCC3)n2)c(Cl)cn1)C1CCNCC1", "Experimental result": 8}

Suppose we examine the compound O=C(Nc1cc(-c2cncc(NCC3CCOCC3)n2)c(Cl)cn1)C1CCCOC1 (centres unmarked) ; what IC50 value has been reported?
9

Look at this compound and give its reported IC50. `O=C(Nc1cc(-c2cncc(NCc3ccccn3)n2)c(Cl)cn1)[C@@H]1CCCNC1`
121

Need IC50, item `CC(=O)NCCNc1cncc(-c2cc(NC(=O)[C@@H]3CCCNC3)ncc2Cl)n1`
153
